Test: Toxicity in brine shrimp assessed as lethal dose incubated for 24 hrs
Settings: artemia salina
readout.type: LC50
Provide the measurement as a number trailed by its unit.

Example cases with answers are listed next.
| compound | LC50 |
| --- | --- |
| Cc1c(/N=C/c2ccc(O)c(O)c2)c(=O)n(-c2ccccc2)n1C | 481 ppm |
| Cc1c(/N=C/c2ccc(O)cc2O)c(=O)n(-c2ccccc2)n1C | 581 ppm |
| O=C(O)c1cc(O)c(O)c(O)c1 [GALLIC ACID] | 78 ppm |

# ---- query compound ----
Please report LC50 for the following compound: `Cc1c(/N=C/c2ccc(Cl)cc2)c(=O)n(-c2ccccc2)n1C` 225 ppm
